- EXPERIMENTAL_SYSTEM: thrombin (UniProt P00734;P00734 328-363;364-622)
- PROCEDURE_TEXT: competitive hybridization, CD of DNA origami chiral plasmonic probe; 170 nM thrombin, n=7-11 bp at aptamer 5' end; R2=0.94 (below the authors' 0.95 validity threshold); Binding buffer, pH and temperature not given in the material shown; origami assembled in TE with 20 mM MgCl2 and 5 mM NaCl; thrombin 170 nM
OUTCOME_MEASURE: pKd
// field semantics: pKd = negative decimal log of concentration (mol/L)

The binder identified as CTAGCGAGCGAACTTTGGTTGGTGTGGTTGG (structured_DNA) [thrombin DNA aptamer, 5' bridge lock (complement hybridizes at aptamer 5' end)] registered its pKd at 6.63

// data source = paper PMC8908738
